Origin of the recorded values: the GenesisPotency data set

molecular target: Histone H2AX, Homo sapiens (UniProt P16104); test: PubChem AID 1224896
The campaign covered roughly 9,700 compounds. About 520 (5.4%) were called active. The full list was thinned out, with actives kept by preference.
measurement-type: outcome

Check out these entries, answers already filled in.
CCCCN(CCCC)CCCC; inactive
O=C1OC2(c3ccccc31)c1cc(I)c(O)c(I)c1Oc1c2cc(I)c(O)c1I; active
Clc1ccc(C(c2ccccc2Cl)C(Cl)Cl)cc1 (stereo unspecified); active
CCCCC(CC)COP(=O)(OCC(CC)CCCC)OCC(CC)CCCC (stereo unspecified); inactive
CC(C)=CC(=O)C=C(C)C; inactive
O=C([O-])c1cc(=O)c2c(OCC(O)COc3cccc4oc(C(=O)[O-])cc(=O)c34)cccc2o1.[Na+].[Na+]; inactive

Request: State the recorded outcome for this entry: COc1cccc(N)c1
Response: inactive

Request: State the recorded outcome for this entry: O=C1OC(=O)c2cc([N+](=O)[O-])ccc21
Response: inactive
